target.entity: Human MGAT-2 (Homo sapiens, UniProt Q3SYC2)
Construct: made in house; host or cells: Sf9 cells (membrane preparation)
Sequence (Q3SYC2 whole entry): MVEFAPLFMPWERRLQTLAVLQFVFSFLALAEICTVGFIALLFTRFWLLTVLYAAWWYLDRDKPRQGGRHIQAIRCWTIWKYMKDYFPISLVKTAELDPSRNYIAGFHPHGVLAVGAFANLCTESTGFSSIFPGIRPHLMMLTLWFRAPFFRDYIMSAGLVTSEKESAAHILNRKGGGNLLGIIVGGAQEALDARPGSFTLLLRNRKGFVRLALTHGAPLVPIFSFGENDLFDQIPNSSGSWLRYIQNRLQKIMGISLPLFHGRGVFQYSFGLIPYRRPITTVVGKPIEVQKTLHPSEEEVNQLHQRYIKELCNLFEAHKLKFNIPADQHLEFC
method.notes: MGAT LCMS Assay
Type: biochemical
measurement.context: human MGAT2 membranes expressed in Sf9 cells; 100 μM 2-oleoylglycerol, 15 μM oleoyl-coenzyme A; read-out: h-MGAT LCMS IC50
pIC50: −log10 of the molar value.
quantity.kind: pIC50

record.smiles | quantity.kind | measured.number
O=C(Nc1ccc(OC(F)(F)F)cc1)c1c(-c2cnn(C3CC3)c2)cc(C2CCCCC2)[nH]c1=O | pIC50 | 6.45

a: CCOc1ccc(NC(=O)c2c(-c3ccc(C)cc3)cc(-c3cnn(CCCCCC(F)(F)F)c3)[nH]c2=O)cc1
b: Cc1ccc(-c2cc(C3CCCCC3)[nH]c(=O)c2C(=O)Nc2cccnc2)cc1
Min pIC50? a | b Answer with the label corresponding to your selection.
b
(b: 6.27, a: 6.57)
